The origin of these recorded values is patent US20200002421A1.

Target: T1, Human full length B7-H3 (human, UniProt Q5ZPR3 29-534)
T1 construct: on 3T12 transfectants, NCI-H1650 and other cells; also called huB7-H3; hu B7-H3
T1 sequence: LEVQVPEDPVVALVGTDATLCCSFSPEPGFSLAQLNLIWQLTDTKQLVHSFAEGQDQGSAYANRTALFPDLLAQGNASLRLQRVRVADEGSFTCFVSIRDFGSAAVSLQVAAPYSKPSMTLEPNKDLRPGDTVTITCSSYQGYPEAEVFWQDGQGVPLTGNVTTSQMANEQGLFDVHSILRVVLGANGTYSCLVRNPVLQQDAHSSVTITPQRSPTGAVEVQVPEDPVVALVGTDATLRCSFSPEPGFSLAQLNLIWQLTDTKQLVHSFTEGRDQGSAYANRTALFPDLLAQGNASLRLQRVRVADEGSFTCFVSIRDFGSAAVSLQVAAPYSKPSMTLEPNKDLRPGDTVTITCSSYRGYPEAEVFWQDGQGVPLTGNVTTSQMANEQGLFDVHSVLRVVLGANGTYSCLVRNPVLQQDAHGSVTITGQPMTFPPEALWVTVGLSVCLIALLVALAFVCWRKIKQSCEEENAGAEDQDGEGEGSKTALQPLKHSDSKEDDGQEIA
Assay: FACS, 3T12 transfectants
Provide the recorded EC50 for the entries that follow.
Form entry: value (nM) — number only.

(Q) Consider the binder huAb3v2.9 (antibody, V domains shown) VH: EVQLVQSGAEVKKPGSSVKVSCKASGYTFSSYWMHWVRQAPGQGLEWIGLIHPISGSTNYNEMFKNRATLTVDRSTSTAYMELSSLRSEDTAVYYCAGGGRLYFDYWGQGTTVTVSS VL: DIVMTQSPLSLPVTPGEPASISCRSSQSLVHSNQDTYLRWYLQKPGQSPQLLIYKVSNRFSGVPDRFSGSGSGTDFTLKISRVEAEDVGVYYCSQSTHVPYTFGGGTKVEIK and give its measured EC50.
(A) 6.16

(Q) Consider the binder huAb3v2 (antibody, V domains shown) VH: EVQLVQSGAEVKKPGSSVKVSCKASGYTFSSYWMHWVRQAPGQGLEWIGLIHPDSGSTNYNEMFKNRATLTVDRSTSTAYMELSSLRSEDTAVYYCAGGGRLYFDYWGQGTTVTVSS VL: DIVMTQSPLSLPVTPGEPASISCRSSQSLVHSNGDTYLRWYLQKPGQSPQLLIYKVSNRFSGVPDRFSGSGSGTDFTLKISRVEAEDVGVYYCSQSTHVPYTFGGGTKVEIK and give its measured EC50.
(A) 5.11

(Q) Consider the binder huAb3v2.6 (antibody, human IgG1, kappa, L234A L235A, V domains shown, Ig gamma-1 mutant / kappa) VH: EVQLVQSGAEVKKPGSSVKVSCKASGYTFSSYWMHWVRQAPGQGLEWIGLIHPESGSTNYNEMFKNRATLTVDRSTSTAYMELSSLRSEDTAVYYCAGGGRLYFDYWGQGTTVTVSS VL: DIVMTQSPLSLPVTPGEPASISCRSSQSLVHSNQDTYLRWYLQKPGQSPQLLIYKVSNRFSGVPDRFSGSGSGTDFTLKISRVEAEDVGVYYCSQSTHVPYTFGGGTKVEIKR and give its measured EC50.
(A) 5.64
